- Test system: Enterococcus faecalis
- assay-text: Inhibition of recombinant Enterococcus faecalis C-terminal His6-tagged DdlB expressed in Escherichia coli LMG194 assessed as residual activity using D-Ala as substrate at 100 uM preincubated with enzyme for 30 mins followed by substrate addition and measured after 20 mins by malachite green based colorimetric analysis relative to control
- cond: time 50.0 min
# key: entry, value: Activity
observation-type: Activity

input-smiles | measured-result
O=C(NC(=S)NNC(=O)c1ccccc1O)c1ccccc1 | > 50%
Oc1ccccc1/N=C(/S)Nc1ccccc1 | > 100%
O=C(NNC(=S)Nc1ccc(F)c(F)c1)c1ccccc1O | > 50%
Nc1ccccc1-c1n[nH]c(=S)n1-c1ccccc1 | > 100%
O=C(NNC(=S)Nc1ccc(Cl)c(Cl)c1)c1ccccc1 | > 100%
Oc1ccccc1NC(=S)Nc1ccc(Cl)c(Cl)c1 | > 100%
Oc1ccccc1-c1nnc(Nc2ccc(Cl)c(Cl)c2)s1 | > 100%
O=C(NC(=S)NNC(=O)c1ccccc1O)c1ccc(Cl)c(Cl)c1 | > 50%
Oc1ccccc1-c1n[nH]c(=S)n1-c1ccc(F)c(F)c1 | > 100%
COc1ccc(O)c(-c2n[nH]c(=S)n2-c2ccccc2)c1 | > 50%
Clc1ccc(Nc2nnc(-c3ccccc3)s2)cc1Cl | > 100%
Fc1ccc2c(c1F)Oc1ccccc1-c1n[nH]c(=S)n1-2 | > 100%
Nc1ccccc1C(=O)NNC(=S)Nc1ccccc1 | > 100%
COc1ccccc1-c1n[nH]c(=S)n1-c1ccc(Cl)c(Cl)c1 | > 100%
S=c1[nH]nc(-c2ccccc2)n1-c1ccc(Cl)c(Cl)c1 | > 100%
Sc1nnc(-c2ccccc2)n1-c1ccccc1 | > 100%
COc1ccccc1C(=O)NNC(=S)Nc1ccc(Cl)c(Cl)c1 | > 100%
Oc1ccccc1-c1nnc(S)n1-c1ccccc1 | > 100%
Oc1ccccc1/C=N/NC(=S)Nc1ccccc1 | > 50%

* * *

- assay-text: Inhibition of recombinant Enterococcus faecalis C-terminal His6-tagged DdlB expressed in Escherichia coli LMG194 using D-Ala as substrate preincubated with enzyme for 30 mins followed by substrate addition and measured after 20 mins by malachite green based colorimetric analysis
pIC50: −log10 of the molar value.

input-smiles | pIC50
Oc1ccccc1-c1n[nH]c(=S)n1-c1ccc(Cl)c(Cl)c1 | 3.52
O=C(NNC(=S)Nc1ccccc1)c1ccccc1O | 6.13
Oc1ccccc1/C=N/NC(=S)Nc1ccc(Cl)c(Cl)c1 | 5.83

* * *

- assay-text: Inhibition of recombinant Enterococcus faecalis C-terminal His6-tagged DdlB expressed in Escherichia coli LMG194 using D-Ala as substrate preincubated with enzyme for 30 mins followed by substrate addition and measured after 20 mins by malachite green based colorimetric analysis
pIC50: −log10 of the molar value.
# cutoff 6 applies to pIC50; >= gives YES, < gives NO

input-smiles | assigned-label
N[C@H]1CONC1=O | NO
Oc1ccccc1/C=N/NC(=S)Nc1ccccc1 | NO
COc1ccc(O)c(C(=O)NNC(=S)Nc2ccccc2)c1 | YES
O=C(NNC(=S)Nc1ccc(C(F)(F)F)cc1)c1ccccc1O | YES
O=C(NNC(=S)Nc1ccc(F)c(F)c1F)c1ccccc1O | YES
COc1ccc(O)c(-c2n[nH]c(=S)n2-c2ccccc2)c1 | NO
Oc1ccccc1-c1n[nH]c(=S)n1-c1ccc(F)cc1 | NO

* * *

- Tested on: Staphylococcus aureus
- assay-text: Antibacterial activity against methicillin and linezolid resistant Staphylococcus aureus NRS119 assessed as reduction in bacterial growth incubated for 18 to 24 hrs by broth microdilution method
- Format: functional
- cond: time 18-24 hrs

input-smiles | MIC
O=C(NNC(=S)Nc1ccc(F)cc1)c1ccccc1O | > 100 µM
N[C@H]1CONC1=O | 627 µM
O=C(NNC(=S)Nc1ccc(Cl)c(Cl)c1)c1ccccc1O | 50 µM
O=C(NNC(=S)Nc1ccccc1)c1ccccc1O | > 800 µM
Oc1ccccc1NC(=S)Nc1ccc(Cl)c(Cl)c1 | 50 µM
Oc1ccccc1/C=N/NC(=S)Nc1ccc(Cl)c(Cl)c1 | 12.5 µM

* * *

Reported log10 MIC by item:
- Test system: Staphylococcus aureus
- assay-text: Antibacterial activity against methicillin and linezolid resistant Staphylococcus aureus NRS119 assessed as reduction in bacterial growth incubated for 18 to 24 hrs by broth microdilution method
- Assay type: functional
- cond: time 18-24 hrs
observation-type: log10 MIC (log10 of the value in µM)

input-smiles | log10 MIC
O=C(NNC(=S)Nc1ccc(C(F)(F)F)cc1)c1ccccc1O | 2.00
O=C(NC(=S)NNC(=O)c1ccccc1O)c1ccc(Cl)c(Cl)c1 | 1.40
Oc1ccccc1-c1n[nH]c(=S)n1-c1ccc(Cl)c(Cl)c1 | 2.60
O=C(NNC(=S)Nc1ccc(F)c(F)c1F)c1ccccc1O | 2.60
CN[C@H](CC(C)C)C(=O)N[C@H]1C(=O)N[C@@H](CC(N)=O)C(=O)N[C@H]2C(=O)N[C@H]3C(=O)N[C@H](C(=O)N[C@H](C(=O)O)c4cc(O)cc(O)c4-c4cc3ccc4O)[C@H](O)c3ccc(c(Cl)c3)Oc3cc2cc(c3O[C@@H]2O[C@H](CO)[C@@H](O)[C@H](O)[C@H]2O[C@H]2C[C@](C)(N)[C@H](O)[C@H](C)O2)Oc2ccc(cc2Cl)[C@H]1O | -0.15
CC(=O)NC[C@H]1CN(c2ccc(N3CCOCC3)c(F)c2)C(=O)O1 | 2.28

* * *

Overview of recorded cytotoxicity at 2 x MIC for various compounds
- assay-text: Cytotoxicity against human THP-1 cells assessed as reduction in cell viability at 2 times MIC measured after 1 to 2 hrs by trypan blue exclusion assay
- Type: cell-based
- cond: time 1-2 hrs, read-out: INH

input-smiles | cytotoxicity at 2 x MIC (%)
Oc1ccccc1/C=N/NC(=S)Nc1ccc(Cl)c(Cl)c1 | 5
Oc1ccccc1-c1n[nH]c(=S)n1-c1ccc(Cl)c(Cl)c1 | 5

* * *

- Tested on: Enterococcus faecalis
- assay-text: Antibacterial activity against vancomycin resistant Enterococcus faecalis BM4575 harboring VanE genotype, constitutive expression of Ddl and VanE D-Ala-D-Ser ligase assessed as reduction in bacterial growth incubated for 18 to 24 hrs by broth microdilution method
- Type: functional
- cond: time 18-24 hrs
The following molecules are shown together with reported MIC values.

input-smiles | value-comparator | MIC, µM
Oc1ccccc1NC(=S)Nc1ccc(Cl)c(Cl)c1 | = | 100
O=C(NNC(=S)Nc1ccc(F)c(F)c1F)c1ccccc1O | = | 400
O=C(NNC(=S)Nc1ccc(F)cc1)c1ccccc1O | > | 100
O=C(NNC(=S)Nc1ccc(Cl)c(Cl)c1)c1ccccc1O | = | 50
O=C(NNC(=S)Nc1ccccc1)c1ccccc1O | > | 800

* * *

- assay-text: Inhibition of Ddl in Streptococcus faecalis ATCC 8043 using D-[1-14C]-alanine as substrate preincubated with enzyme for 40 mins followed by substrate and addition and measured after 30 mins by TLC analysis
- Parameters: species or system Enterococcus faecalis
observation-type: Ki (µM)

input-smiles | observation-type | uom | measured-result
C[C@@H](CP(=O)(O)[C@@H](C)N)C(=O)O | Ki | µM | 4

* * *

- assay-text: Inhibition of recombinant Enterococcus faecalis C-terminal His6-tagged DdlB expressed in Escherichia coli LMG194 using D-Ala as substrate preincubated with enzyme for 30 mins followed by substrate addition and measured after 20 mins by malachite green based colorimetric analysis
Mark rule met only for IC50 values smaller than 1000 nM; exact matches and larger values are rule not met.

input-smiles | assigned-label
O=C(NC(=S)NNC(=O)c1ccccc1O)c1ccc(Cl)c(Cl)c1 | rule not met
O=C(NNC(=S)Nc1ccc(F)c(F)c1)c1ccccc1O | rule met
O=C(NC(=S)NNC(=O)c1ccccc1O)c1ccccc1 | rule met
O=C(NNC(=S)Nc1ccc(F)cc1)c1ccccc1O | rule met
O=C(NNC(=S)Nc1ccc(Cl)c(Cl)c1)c1ccccc1O | rule not met
